Target: T1, Murine Nectin-4 (mouse, UniProt Q8R007 31-347, limits assumed)
T1 construct: Protein immobilised on the SPR chip; also called mouse Nectin-4
T1 sequence: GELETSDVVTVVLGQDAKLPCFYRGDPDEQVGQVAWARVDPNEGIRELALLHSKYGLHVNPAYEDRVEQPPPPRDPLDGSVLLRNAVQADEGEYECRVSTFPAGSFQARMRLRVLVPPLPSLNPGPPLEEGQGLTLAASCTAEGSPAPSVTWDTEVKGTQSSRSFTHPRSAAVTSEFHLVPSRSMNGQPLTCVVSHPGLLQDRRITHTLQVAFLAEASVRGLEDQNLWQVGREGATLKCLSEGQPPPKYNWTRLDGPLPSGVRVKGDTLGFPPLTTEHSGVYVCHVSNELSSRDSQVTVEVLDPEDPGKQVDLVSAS
Assay: SPR, Biacore, 1:1 model, 25 C
Bridges are numbered along the chain shown (N, C = ends). Primed or numbered codes have the meaning given here. The star is where a group is joined. DOTA = O=C(O)CN1CCN(CC(=O)O)CCN(CC(=O)*)CCN(CC(=O)O)CC1; PEG4″ = 4(ethylene glycol)
Field: Kd. Provide a value for each of the binders that follow.
Could you give me the number in nM? Just the number is fine.

# input // lookup Kd for {DOTA-PEG4″}-CEYDEEFFAGLKRLRGGDICYYIKKKFDKVPDLCIEEILDKLGC-OH (designed binder, disulfide 1-34, 20-44) [C12]
# output 2.94

# input // lookup Kd for {DOTA-PEG4″}-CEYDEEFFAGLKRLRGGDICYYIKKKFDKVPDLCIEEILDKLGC-OH (designed binder, disulfide 1-34, 20-44; also: 138La complex of DOTA) [C91]
# output 24.6

# input // lookup Kd for Ac-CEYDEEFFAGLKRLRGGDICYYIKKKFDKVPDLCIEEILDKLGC-OH (designed binder, disulfide 1-34, 20-44) [C9]
# output 7.83
